meta.source: patent US20230304019

Measured on: TXNDC5 (wild type) (Homo sapiens, UniProt Q8NBS9 Q8NBS9:33-432)
Sequence (Q8NBS9 33-432, one chain of several): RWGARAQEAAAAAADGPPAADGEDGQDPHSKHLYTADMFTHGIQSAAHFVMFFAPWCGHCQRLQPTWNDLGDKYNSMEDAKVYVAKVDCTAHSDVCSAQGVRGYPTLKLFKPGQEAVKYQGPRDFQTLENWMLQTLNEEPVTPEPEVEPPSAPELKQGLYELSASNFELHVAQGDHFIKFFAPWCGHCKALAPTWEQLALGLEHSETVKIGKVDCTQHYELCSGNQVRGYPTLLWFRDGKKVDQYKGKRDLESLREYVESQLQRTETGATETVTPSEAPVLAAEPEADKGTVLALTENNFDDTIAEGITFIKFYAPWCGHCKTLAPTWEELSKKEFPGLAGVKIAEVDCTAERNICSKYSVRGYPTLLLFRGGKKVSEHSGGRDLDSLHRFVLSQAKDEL
Test: magnetic nanoparticle (MARAS) pulldown with q-PCR, nonlinear regression
Condition notes: tags: Ni-column purified, baculovirus/insect cells, Sino Biological; double stem-loop (predicted)
Property: Kd (nM)
Respond with the bare value in nM.

Just so you know, measured Kd for AGCAGCACAGAGGTCAGGAACCTTATGCCTATGTAGCGTGCTACCGTGAA (ssDNA) [Aptamer-7] came out at 16.9
